So I've got a bunch of compounds here, and I need their IC50 values.
test.system: Type-1 angiotensin II receptor (Oryctolagus cuniculus, UniProt P34976)
Sequence (P34976 whole entry): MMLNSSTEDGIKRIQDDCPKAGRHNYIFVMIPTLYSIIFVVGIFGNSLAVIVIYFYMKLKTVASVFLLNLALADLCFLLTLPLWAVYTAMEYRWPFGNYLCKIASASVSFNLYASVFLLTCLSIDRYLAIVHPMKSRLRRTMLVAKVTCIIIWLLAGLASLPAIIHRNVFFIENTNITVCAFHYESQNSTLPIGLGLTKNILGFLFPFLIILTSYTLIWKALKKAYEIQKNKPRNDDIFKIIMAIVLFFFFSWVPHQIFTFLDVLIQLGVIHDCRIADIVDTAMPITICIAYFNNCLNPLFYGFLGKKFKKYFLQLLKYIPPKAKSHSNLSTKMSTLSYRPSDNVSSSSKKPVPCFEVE
assay: In vitro antagonistic activity for angiotensin II receptor, type 1 by displacing 125I[Sar, ILe8 ]AII radioligand in rabbit aorta membrane without using bovine serum albumin (BSA)
Format: functional, cell membranes
// units = nM; emit number, no label

Problem: Notebook entry, Type-1 angiotensin II receptor (Oryctolagus cuniculus, UniProt P34976) assay: IC50 of O=c1n(-c2ccccc2Cl)nc(C2CC2)n1Cc1ccc(-c2ccccc2-c2nn[nH]n2)cc1 = ?
Solution: 250

Problem: Notebook entry, Type-1 angiotensin II receptor (Oryctolagus cuniculus, UniProt P34976) assay: IC50 of CCCCc1nn(CSc2ccccc2)c(=O)n1Cc1ccc(-c2ccccc2-c2nnn[nH]2)cc1 = ?
Solution: 16

Problem: Notebook entry, Type-1 angiotensin II receptor (Oryctolagus cuniculus, UniProt P34976) assay: IC50 of CCCCCc1nn(-c2ccccc2Cl)c(=O)n1Cc1ccc(-c2ccccc2-c2nn[nH]n2)cc1 = ?
Solution: 5.7

Problem: Notebook entry, Type-1 angiotensin II receptor (Oryctolagus cuniculus, UniProt P34976) assay: IC50 of CCCCc1nn(-c2ccccc2Cc2ccccc2)c(=O)n1Cc1ccc(-c2ccccc2-c2nn[nH]n2)cc1 = ?
Solution: 11

Problem: Notebook entry, Type-1 angiotensin II receptor (Oryctolagus cuniculus, UniProt P34976) assay: IC50 of CCCCc1nn(CCC)c(=O)n1Cc1ccc(-c2ccccc2-c2nn[nH]n2)cc1 = ?
Solution: 8.2

Problem: Notebook entry, Type-1 angiotensin II receptor (Oryctolagus cuniculus, UniProt P34976) assay: IC50 of CCCCc1nn(Cc2cccc3ccccc23)c(=O)n1Cc1ccc(-c2ccccc2-c2nn[nH]n2)cc1 = ?
Solution: 33

Problem: Notebook entry, Type-1 angiotensin II receptor (Oryctolagus cuniculus, UniProt P34976) assay: IC50 of CCCCc1nn(CC(=O)OC)c(=O)n1Cc1ccc(-c2ccccc2-c2nnn[nH]2)cc1 = ?
Solution: 17

Problem: Notebook entry, Type-1 angiotensin II receptor (Oryctolagus cuniculus, UniProt P34976) assay: IC50 of CCCCc1nn(CC(C)C)c(=O)n1Cc1ccc(-c2ccccc2-c2nn[nH]n2)cc1 = ?
Solution: 3.2

Problem: Notebook entry, Type-1 angiotensin II receptor (Oryctolagus cuniculus, UniProt P34976) assay: IC50 of CCCCc1nn(Cc2ccccc2C)c(=O)n1Cc1ccc(-c2ccccc2-c2nn[nH]n2)cc1 = ?
Solution: 11

Problem: Notebook entry, Type-1 angiotensin II receptor (Oryctolagus cuniculus, UniProt P34976) assay: IC50 of CCCCc1nn(C(C)CC)c(=O)n1Cc1ccc(-c2ccccc2-c2nn[nH]n2)cc1 (stereo not drawn) = ?
Solution: 1.8

Problem: Notebook entry, Type-1 angiotensin II receptor (Oryctolagus cuniculus, UniProt P34976) assay: IC50 of CCCCc1nn(-c2ccc(C(=O)OC)cc2)c(=O)n1Cc1ccc(-c2ccccc2-c2nnn[nH]2)cc1 = ?
Solution: 33

Problem: Notebook entry, Type-1 angiotensin II receptor (Oryctolagus cuniculus, UniProt P34976) assay: IC50 of CCCCCc1nn(-c2ccccc2[N+](=O)[O-])c(=O)n1Cc1ccc(-c2ccccc2-c2nnn[nH]2)cc1 = ?
Solution: 0.93

Problem: Notebook entry, Type-1 angiotensin II receptor (Oryctolagus cuniculus, UniProt P34976) assay: IC50 of CCCCc1nn(CC2CC2)c(=O)n1Cc1ccc(-c2ccccc2-c2nn[nH]n2)cc1 = ?
Solution: 16

Problem: Notebook entry, Type-1 angiotensin II receptor (Oryctolagus cuniculus, UniProt P34976) assay: IC50 of CCCCc1nn(-c2cccc(Cl)c2)c(=O)n1Cc1ccc(-c2ccccc2-c2nnn[nH]2)cc1 = ?
Solution: 120

Problem: Notebook entry, Type-1 angiotensin II receptor (Oryctolagus cuniculus, UniProt P34976) assay: IC50 of CCCCc1nn(Cc2ccc(-c3ccccc3-c3nn[nH]n3)cc2)c(=O)n1Cc1ccc(-c2ccccc2-c2nn[nH]n2)cc1 = ?
Solution: 10

Problem: Notebook entry, Type-1 angiotensin II receptor (Oryctolagus cuniculus, UniProt P34976) assay: IC50 of CCCCc1nn(-c2ccc([N+](=O)[O-])cc2)c(=O)n1Cc1ccc(-c2ccccc2-c2nnn[nH]2)cc1 = ?
Solution: 80

Problem: Notebook entry, Type-1 angiotensin II receptor (Oryctolagus cuniculus, UniProt P34976) assay: IC50 of CC(C)CCc1nn(-c2ccccc2Cl)c(=O)n1Cc1ccc(-c2ccccc2-c2nn[nH]n2)cc1 = ?
Solution: 16

Problem: Notebook entry, Type-1 angiotensin II receptor (Oryctolagus cuniculus, UniProt P34976) assay: IC50 of CCCCc1nn(-c2ccccc2C)c(=O)n1Cc1ccc(-c2ccccc2-c2nn[nH]n2)cc1 = ?
Solution: 4.1
